meta.source: PubChem BioAssay (NCI)

- System: SNB-19 CNS
- run-description: NCI tumour cell line growth inhibition, 48 h
observation-type: GI50

compound	GI50
COc1ccc(C(=O)NCCNc2nccc(-c3c(-c4ccc(F)cc4)nc4sccn34)n2)cc1	10.3 µM
O=C(O)c1cc2cc(OCc3ccccc3)ccc2[nH]1	> 100 µM
O=c1cc(N2CCOCC2)oc2c(-c3ccc4c(c3)OCCO4)csc12	1.18 µM
O=C1C(C(Nc2ccccc2)c2ccccc2)=C([O-])c2ccccc21.O=C1C(C(Nc2ccccc2)c2ccccc2)=C([O-])c2ccccc21.[Co+2] (stereo unspecified)	> 100 µM
C=CCCCC(=O)CCC(=O)OCC1O[C@@H](O[C@@H]2C(O)[C@@H](OC(C)=O)C(C)O[C@H]2O[C@H](CC=C)CCCCC)C(O)[C@@H](OC(=O)/C(C)=C/C)[C@@H]1OC(=O)/C=C/c1ccccc1 (stereo partly specified)	0.518 µM
COc1ccc(OC)c(Nc2nc3ccccc3c3c2-c2ccc(OC)cc2C3=O)c1	> 100 µM
Cc1ccc2nc3ccccc3c(NCc3ccccc3)c2c1	4.01 µM
COc1ccc2nc(NC(=O)COc3cc(/C=C\c4cc(OC)c(OC)c(OC)c4)ccc3OC)sc2c1	6.3 µM

Identify measured GI50 corresponding to N#Cc1c(-c2ccc(Cl)cc2)cc(-c2cc(O)ccc2O)nc1N
1.29 µM

Identify measured GI50 corresponding to NCCOc1ncccc1/C=C1\C2C=CC=CC2C2C=CC(F)=CC12 (stereo unspecified)
0.816 µM

Identify measured GI50 corresponding to COc1cc2c3c(n(CCCNCCCNCCCn4c5c(c6cc(OC)c(OC)cc6c4=O)C(=O)c4ccccc4-5)c(=O)c2cc1OC)-c1ccccc1C3=O
6.91 µM

---

- Tested on: NCI-H23 lung
- run-description: NCI tumour cell line growth inhibition, 48 h; in the data active = GI50 below about 0.43 µM; inactive = the rest
// classify into active, inactive

Query: recorded result category for CC1=C2[C@H]3OC(=O)[C@@H](C)[C@@H]3CC[C@@]2(C)C=CC1=O in this test
inactive

Query: recorded result category for O=c1c2sc3ccccc3c2nnn1-c1ccc(F)c(Cl)c1 in this test
inactive

Query: recorded result category for COc1ccc(C(=O)C2C(C#N)C(C#N)C3C=Cc4ccccc4N32)cc1 (stereo unspecified) in this test
inactive

Query: recorded result category for O=C1CS/C(=N/S(=O)(=O)c2ccc(N3N=C4c5ccccc5CC4C3c3cccs3)cc2)N(c2ccccc2)C1 (stereo unspecified) in this test
inactive

Query: recorded result category for Cc1ccnc2[nH]c(-c3cccc4ccccc34)cc(=O)c12 in this test
active

Query: recorded result category for COc1ccc(OC)c(Nc2nc3ccccc3c3c2-c2ccc(OC)cc2C3=O)c1 in this test
inactive

---

- Tested on: OVCAR-4 ovarian
- run-description: NCI tumour cell line growth inhibition, 48 h
observation-type: TGI (µM)
The figure you give is taken to be in µM; do not add the unit.

> print(dat)
                                   compound     study.target   val
1  C=C[C@H]1CN2CCc3c([nH]c4cc(O)ccc34)[C@@H]2C[C@@H]1C[C@H]1c2[nH]c3ccccc3c2CCN1C  OVCAR-4 ovarian  18.7
2         OC(c1ccc(F)cc1)(c1ccc(F)cc1)C1CC1  OVCAR-4 ovarian  79.2

State TGI on OVCAR-4 ovarian. Entry: O=C(c1c(Cl)cc(Cl)cc1Cl)N(Cc1cccnc1)C(=S)N(Cc1cccnc1)C(=O)c1c(Cl)cc(Cl)cc1Cl
5.25

State TGI on OVCAR-4 ovarian. Entry: C=C1C(=O)C2=C[C@H]1C[C@H](O)C(=O)[C@]1(C)CCCC(C)(C)[C@H]1C[C@H]2O
19.2
